system: UACC-257 melanoma; test: NCI tumour cell line growth inhibition, 48 h
reported_property: TGI

Examples with their reported TGI follow.
compound	tested_target	measured_value
CC(=O)OCC1OC(n2c(=S)n(-c3ccccc3)c(=O)c3cc(Br)ccc32)C(OC(C)=O)C(OC(C)=O)C1OC(C)=O (stereo unspecified)	UACC-257 melanoma	> 100 µM
CN(C)CCC(/C=C/c1ccccc1)=N\Nc1ccc(Cl)cc1	UACC-257 melanoma	14.5 µM
COc1ccc2c(c1)C(=O)c1c-2n(CCCN=[N+]=[N-])c(=O)c2cc(N)ccc12	UACC-257 melanoma	> 100 µM

Q. Output TGI of COc1cc(/C=C2\NC(=S)C3Cc4c(OC)c(C)c(OC)c(OC)c4C2N3C)c(OC)c(C)c1OC (stereo unspecified)
A. > 100 µM

Q. Output TGI of CC(=O)c1c(C)cc2cccc(OC3OC(CO)C(O)C(O)C3O)c2c1O (stereo unspecified) (tested in a mixture with another compound)
A. > 100 µM

Q. Output TGI of Oc1cc2c(cc1C(c1ccc3c(c1)OCO3)N1CCN(C(c3ccc4c(c3)OCO4)c3cc4c(cc3O)OCO4)CC1)OCO2 (stereo unspecified)
A. 33.4 µM

* * *

system: SK-OV-3 ovarian; assay: NCI tumour cell line growth inhibition, 48 h
reported_property: TGI

Examples with their reported TGI follow.
compound	measured_value
Cc1ccc(S(=O)(=O)OI(O)CC(F)(F)F)cc1	> 100 µM
OCc1ncc(-c2ccccc2)s1	> 100 µM
C/C(=C(/C)c1cc[n+](C)cc1)c1cc[n+](C)cc1	> 75 µM
Cn1c(-c2cccs2)cc(-c2ccsc2)c1-c1cccs1	> 100 µM
C=C[Si](C)(C)COC(=O)/C(C#N)=C/C=C/c1ccccc1	> 100 µM

Q. Output TGI of "Cc1cc(S(=O)(=O)Nc2nc3ccccc3[nH]2)c(SCc2ccccc2)cc1Cl"
A. > 100 µM

* * *

test system: COLO 205 colon; assay: NCI tumour cell line growth inhibition, 48 h
Collected TGI values appear next to each entry.

molecule	reported_property	measured_value
COC(=O)C1=CO[C@@H](OC2OC(CO)C(O)C(O)C2O)[C@@H]2[C@H](C)[C@@H](O)[C@@H](O)[C@]12O (some centres not stated)	TGI	> 100 µM
Cc1ccc(/C=C2\CCCCCC2=O)cc1	TGI	> 100 µM
Cn1nc(S(N)(=O)=O)s/c1=N/S(=O)(=O)c1ccc(N)cc1	TGI	> 100 µM

Q. Output TGI of Oc1cc2c(cc1C(c1ccc3c(c1)OCO3)N1CCN(C(c3ccc4c(c3)OCO4)c3cc4c(cc3O)OCO4)CC1)OCO2 (configuration not stated)
A. 90.8 µM

Q. Output TGI of "O=c1[nH]c2cc3[nH]c(=O)c(=O)[nH]c3cc2[nH]c1=O"
A. > 100 µM

Q. Output TGI of "C/C(=C1/N=C(c2ccccc2)OC1=O)c1ccccc1"
A. > 100 µM

Q. Output TGI of CC1(C)CC2C(/C1=N/O)C1(C)CCCC2(C)C1O (configuration not stated)
A. > 100 µM

* * *

tested on: ACHN renal; test: NCI tumour cell line growth inhibition, 48 h
reported_property: log10(TGI) (log10 of the value in µM)
Short version: log10 scale, TGI, µM.

Examples with their reported log10(TGI) follow.
compound	tested_target	log10(TGI)
Cc1cc(C)nc(NS(=O)(=O)c2ccc(Nc3nnc(/C=C/c4c(O)ccc5ccccc45)c(=O)n3N)cc2)n1	ACHN renal	1.73
COc1ccc(C2N3CCCCC3[C@@H]3c4[nH]c5ccccc5c4CCN23)c(OC)c1 (stereo not given in full)	ACHN renal	1.74
CC(C)(C)OC(=O)NCC(=O)N(CCc1ccc(Cl)c(Cl)c1)CCN1CCCC1	ACHN renal	1.61
CC(C)=CC[C@H]1C[C@@]2(CC=C(C)C)C(=O)/C(=C(/O)c3ccccc3)C(=O)[C@](CC=C(C)C)(C2=O)C1(C)C	ACHN renal	1.34

Q. Output log10(TGI) of "CCCCCCCCc1ccc(CCC(N)(CO)CO)cc1"
A. 0.47

Q. Output log10(TGI) of CC(C)(C)CN1[C@@H]2CCCC[C@H]2N(CC(C)(C)C)P1(=O)C(O)/C=C/c1ccccc1 (stereo not given in full)
A. 1.97

Q. Output log10(TGI) of CNC(C)[C@H]1CCC2C3CCC4C[C@@H](N(C)C(=O)c5ccccc5)CC[C@]4(C)C3CC[C@@]21C (stereo not given in full)
A. 0.98
